readout.name: Ki (nM)
// note: answer is a bare numeric in nM

Task item: Notebook: pull reported Ki for Muscarinic M5 (Homo sapiens, UniProt P08912), entry COc1ccc2c(c1)N(C[C@H](C)CN(C)C)c1ccccc1[S+]2[O-] (stereo partly drawn) [Sulfoxide, levomepromazine sulfoxide]
Reply: 481

Task item: Notebook: pull reported Ki for Muscarinic M5 (Homo sapiens, UniProt P08912), entry COc1ccc2c(c1)N(C[C@H](C)CN(C)C)c1ccccc1S2 [LMP, Levomepromazine]
Reply: 61

Task item: Notebook: pull reported Ki for Muscarinic M5 (Homo sapiens, UniProt P08912), entry CNCC(C)CN1c2ccccc2Sc2ccc(OC)cc21 (stereo not drawn) [NDM LMP]
Reply: 60

###

Provide the reported Ki of each item.
subject.of.test: Adrenergic α2B (Homo sapiens, UniProt P18089)
Sequence (P18089 1-450): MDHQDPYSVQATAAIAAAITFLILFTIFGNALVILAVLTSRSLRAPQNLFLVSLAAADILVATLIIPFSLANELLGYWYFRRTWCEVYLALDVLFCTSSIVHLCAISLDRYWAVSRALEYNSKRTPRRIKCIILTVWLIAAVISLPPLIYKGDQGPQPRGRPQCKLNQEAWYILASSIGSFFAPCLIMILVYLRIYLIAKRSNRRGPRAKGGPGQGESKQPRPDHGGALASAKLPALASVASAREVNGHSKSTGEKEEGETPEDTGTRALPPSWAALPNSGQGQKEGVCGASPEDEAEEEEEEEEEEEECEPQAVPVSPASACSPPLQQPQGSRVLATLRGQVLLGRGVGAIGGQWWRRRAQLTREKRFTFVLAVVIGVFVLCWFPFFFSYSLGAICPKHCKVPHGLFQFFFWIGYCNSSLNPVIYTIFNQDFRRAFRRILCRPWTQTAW
// note: answer is a bare numeric in nM

Task item: Need Ki, item COc1ccc2c(c1)N(C[C@H](C)CN(C)C)c1ccccc1S2
Reply: 25

Task item: Need Ki, item CNCC(C)CN1c2ccccc2Sc2ccc(OC)cc21 (stereo not drawn)
Reply: 48

###

readout.name: pKi
Remember the convention: pKi equals -log10 of concentration in molar.

Task item: Notebook: pull reported pKi for Serotonin 5-HT7 (Homo sapiens), entry COc1ccc2c(c1)N(C[C@H](C)CN(C)C)c1ccccc1S2
Reply: 7.62

###

subject.of.test: Sodium Channel
assay.remarks: Receptor binding, Sodium Channel
setup.conditions: read-out: Ki
Provide the reported pKi of each item.
Remember the convention: pKi equals -log10 of concentration in molar.

Task item: Need pKi, item COc1ccc2c(c1)N(C[C@H](C)CN(C)C)c1ccccc1S2
Reply: 5.96

Task item: Need pKi, item CNCC(C)CN1c2ccccc2Sc2ccc(OC)cc21 (stereo not drawn)
Reply: 6.19

###

subject.of.test: Adrenergic α2C (Homo sapiens)
Sequence (P18825 whole entry): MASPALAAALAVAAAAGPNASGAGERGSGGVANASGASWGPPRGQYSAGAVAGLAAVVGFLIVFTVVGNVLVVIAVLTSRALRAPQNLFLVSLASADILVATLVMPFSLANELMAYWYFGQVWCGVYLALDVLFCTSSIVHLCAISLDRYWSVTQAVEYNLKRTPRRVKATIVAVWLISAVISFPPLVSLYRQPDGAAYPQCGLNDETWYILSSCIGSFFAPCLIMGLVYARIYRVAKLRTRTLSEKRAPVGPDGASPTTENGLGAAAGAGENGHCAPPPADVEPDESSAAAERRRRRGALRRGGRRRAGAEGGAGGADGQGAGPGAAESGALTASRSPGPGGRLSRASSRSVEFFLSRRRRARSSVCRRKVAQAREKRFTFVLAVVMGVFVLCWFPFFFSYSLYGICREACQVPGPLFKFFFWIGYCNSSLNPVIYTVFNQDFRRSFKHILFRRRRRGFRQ
readout.name: pKi
Remember the convention: pKi equals -log10 of concentration in molar.

Task item: Need pKi, item COc1ccc2c(c1)N(C[C@H](C)CN(C)C)c1ccccc1S2 [LMP, Levomepromazine]
Reply: 7.11

###

subject.of.test: Adrenergic α1A (Homo sapiens)
Sequence (P25100 1-572): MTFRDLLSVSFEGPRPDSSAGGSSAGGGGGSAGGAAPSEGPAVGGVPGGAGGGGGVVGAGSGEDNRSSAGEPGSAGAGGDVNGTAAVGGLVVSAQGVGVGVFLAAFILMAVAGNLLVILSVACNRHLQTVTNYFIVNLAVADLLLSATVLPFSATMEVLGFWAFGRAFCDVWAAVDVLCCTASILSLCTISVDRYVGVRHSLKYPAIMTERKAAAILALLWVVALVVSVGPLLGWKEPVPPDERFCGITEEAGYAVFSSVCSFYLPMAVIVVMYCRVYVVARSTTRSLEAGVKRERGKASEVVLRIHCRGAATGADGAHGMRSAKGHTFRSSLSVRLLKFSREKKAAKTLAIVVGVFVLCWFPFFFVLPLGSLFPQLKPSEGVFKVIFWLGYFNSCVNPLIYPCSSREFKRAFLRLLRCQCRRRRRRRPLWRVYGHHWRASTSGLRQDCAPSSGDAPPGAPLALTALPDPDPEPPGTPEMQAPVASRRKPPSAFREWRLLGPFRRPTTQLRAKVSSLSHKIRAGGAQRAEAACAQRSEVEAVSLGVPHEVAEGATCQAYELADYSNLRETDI
readout.name: Ki
Include the unit after the number when you answer.

Task item: Need Ki, item COc1ccc2c(c1)N(C[C@H](C)CN(C)C)c1ccccc1[S+]2[O-] (stereo partly shown) [Sulfoxide, levomepromazine sulfoxide]
Reply: 0.141 µM

The reported numbers originate from patent US20050080076A1.
